# Measurement target: histamine H4 receptor (Homo sapiens)
# Sequence (Q9H3N8 whole entry): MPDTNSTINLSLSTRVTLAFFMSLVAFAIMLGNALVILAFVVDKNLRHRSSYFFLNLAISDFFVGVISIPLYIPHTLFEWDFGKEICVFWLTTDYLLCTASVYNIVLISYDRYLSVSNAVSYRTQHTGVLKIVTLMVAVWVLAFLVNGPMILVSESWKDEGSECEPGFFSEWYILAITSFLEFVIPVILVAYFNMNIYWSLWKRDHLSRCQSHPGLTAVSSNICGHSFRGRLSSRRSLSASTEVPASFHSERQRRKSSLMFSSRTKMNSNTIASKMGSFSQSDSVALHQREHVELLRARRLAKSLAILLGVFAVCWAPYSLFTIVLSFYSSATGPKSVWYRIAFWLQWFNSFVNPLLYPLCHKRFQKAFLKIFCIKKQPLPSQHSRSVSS
# Assay procedure: In vitro histamine H4 potency in FLIPR (Ca2+ flux, HEK-293 cells coexpressing Gαqi5)
# Type: cell-based
# Parameters: expressed in transfected cells
# Run conditions: Kb for antagonists and inverse agonists, EC50 for partial agonists
Observable: Potency
Write the numeric value and follow it with the unit.

Count: 3. Required value per item: Potency.
1. Nc1nc(O[C@H]2CCNC2)c2c(n1)-c1ccccc1CCC2
2. Nc1nc2c(c(N3CCNCC3)n1)CCCc1cc3c(cc1-2)CCCC3
3. CNc1ccc2c(c1)-c1nc(N)nc(N3C[C@H]4CCCN[C@H]4C3)c1CCC2

1. 468 nM
2. 25 nM
3. 113 nM
